Test system: AsPC-1 (G12D) cells
Experiment: Cell viability assay (CELLTITER-GLO), AsPC-1 cells
Type: cell-based
Settings: Homo sapiens, ASPC1, 72 h, Inhibition of cancerous cells, 3 days incubation, luminescence
metric-name: IC50 (µM)
Quick note: give the figure in µM, leave out the unit.

>>> result_value("CNCc1ccccc1-c1csc([C@@H](C)Nc2nc(C)nc3cc(OCCCCCCCN4CCC(C(F)(F)F)CC4)c(OC)cc23)c1")
0.59
>>> result_value("COc1cc2c(N[C@H](C)c3cccc(Br)c3)nc(C)nc2cc1OCCCCCCCN1CCC2(CC1)CCN(C(=O)OC(C)(C)C)CC2")
1
>>> result_value("COc1cc2c(N[C@H](C)c3cccc(Br)c3)nc(C)nc2cc1OCCCCCCCNCCC(F)(F)F")
1.3

Tested system AsPC-1 (G12D) cells; IC50 recorded for CNCc1ccccc1-c1csc([C@H](C)Nc2nc(C)nc3cc(OCCCCCCC(=O)N4CCCCC4)c(OC)cc23)c1 was 2

Tested system AsPC-1 (G12D) cells; IC50 recorded for CNCc1ccccc1-c1csc(C(C)Nc2nc(C)nc3cc(OCCCCCCCN4CCC(C(F)(F)F)CC4)c(OC)cc23)c1 (stereo in doubt) was 2

Tested system AsPC-1 (G12D) cells; IC50 recorded for CNCc1ccccc1-c1csc([C@H](C)Nc2nc(C)nc3cc(OCCC(C)(C)C)c(OC)cc23)c1 was 1

Tested system AsPC-1 (G12D) cells; IC50 recorded for CNCc1ccccc1-c1csc([C@H](C)Nc2nc(C)nc3cc(OCCCCCCCN4CCN(C(C)=O)CC4)c(OC)cc23)c1 was 0.68

Tested system AsPC-1 (G12D) cells; IC50 recorded for CNCc1ccccc1-c1csc([C@@H](C)Nc2nc(C)nc3cc(OCCCCCCC(=O)N4CCCCC4)c(OC)cc23)c1 was 1.5
